B1: Receptor-interacting serine/threonine-protein kinase 2, residues 438 to 518; numbered along this chain, O43353 (parent)
chain: QWIQSKREDIVNQMTEACLNQSLDALLSRDLIMKEDYELVSTKPTRTSKVRQLLDTTDIQGEEFAKVIVQKLKDNKQMGLQ

- Variants of: B1
- methodNotes: abundance fitness (aPCA) (normalised: wild type 0, dead -1); higher = more abundant; growth selection in yeast, the domain comes from the species named
- settings: Homo sapiens
The threshold is inclusive: abundance fitness of exactly -0.1 counts as 1; values below receive 0.

chainSequence | classLabel
QWIQSKREDIVNQMTEACLNQSLDALLSRDLIMKEDYELVSTGPTRTSKVRQLLDTTDIQGEEFAKVIVQKLKDNKQMGLQ | 0

Next item in the queue.
Qu. Please check the record QWIQSKREDIVNQMTEACLNQSLDALLSRDLIMKEDYELVSTKPTRTSKVHQLLDTTDIQGEEFAKVIVQKLKDNKQMGLQ and state if its abundance fitness is at or above -0.1.
Ans. 0

Each recorded value in this set is attributed to the Human Domainome abundance scans (Beltran et al. 2025).
